System: A. baumannii NCTC 13423
Assay: Antibacterial activity, pre-exposure
Type: cell-based, Acinetobacter baumannii
Conditions: A. baumannii NCTC 13423, pre-exposure, 25 µM, ± SD
outcome_measure: Average inhibition %, biofilms viability (%)
Give the quantity in %, number only.

Q: Test system A. baumannii NCTC 13423; read-out Average inhibition %, biofilms viability; what value for CCCCCC/C=C/c1ccc(CCC(N)(CO)CO)cc1 ?
Ans: 47.6

Q: Checklist item: Average inhibition %, biofilms viability tested on A. baumannii NCTC 13423, entry CCCCCCCCOc1ccc(CCC(N)(CO)CO)cc1 , value?
Ans: 68.3

Q: Provide value of Average inhibition %, biofilms viability for this record tested with A. baumannii NCTC 13423: CCCCCCCCc1ccc(CC(N)(CO)CO)cc1
Ans: 88.7

Q: GET /values?readout=Average inhibition %, biofilms viability&system=A. baumannii NCTC 13423&item= CCCCCCCCc1ccc2ccc(CC(N)(CO)CO)nc2c1
Ans: 100.7

Q: What measured Average inhibition %, biofilms viability is associated with CCCCCc1ccc(-c2ccc(CCC(N)(CO)CO)cc2)cc1 on A. baumannii NCTC 13423?
Ans: 2.8

Q: Recall the recorded Average inhibition %, biofilms viability for CCCCCCCCCCc1ccc(CCC(N)(CO)CO)nc1 with A. baumannii NCTC 13423 and state it.
Ans: 101.2

Q: Give Average inhibition %, biofilms viability (A. baumannii NCTC 13423) of the following compound: CCCCCCCCc1ccc2cc(CC(N)(CO)CO)ccc2c1
Ans: 1.2

Q: Look up Average inhibition %, biofilms viability with A. baumannii NCTC 13423 for this compound: CCCCCCCCCCc1ccc2nc(CCC(N)(CO)CO)ccc2c1
Ans: 0

Q: // map CCCCCCCCc1cccc(CCC(N)(CO)CO)c1 to recorded Average inhibition %, biofilms viability (system: A. baumannii NCTC 13423)
Ans: 100

Q: Field: Average inhibition %, biofilms viability (A. baumannii NCTC 13423). Entry: CCCCCCCCc1ccc(CCC(N)(CO)CO)cc1
Ans: 97.6

Q: Observed Average inhibition %, biofilms viability on A. baumannii NCTC 13423 for CCCCCCCCc1ccc(C(O)CC(N)(CO)CO)cc1 (centres unmarked) , please.
Ans: 6.1
